- ASSAYED SYSTEM: full-length TcPINK1 (1–570) (Tribolium castaneum, UniProt D6WMX4)
- Construct: Kinetics of phosphorylation of PINKtide and indicated variants by full-length TcPINK1 (1–570); made in house; host or cells: E. coli BL21 Codon+
- Sequence (D6WMX4 whole entry): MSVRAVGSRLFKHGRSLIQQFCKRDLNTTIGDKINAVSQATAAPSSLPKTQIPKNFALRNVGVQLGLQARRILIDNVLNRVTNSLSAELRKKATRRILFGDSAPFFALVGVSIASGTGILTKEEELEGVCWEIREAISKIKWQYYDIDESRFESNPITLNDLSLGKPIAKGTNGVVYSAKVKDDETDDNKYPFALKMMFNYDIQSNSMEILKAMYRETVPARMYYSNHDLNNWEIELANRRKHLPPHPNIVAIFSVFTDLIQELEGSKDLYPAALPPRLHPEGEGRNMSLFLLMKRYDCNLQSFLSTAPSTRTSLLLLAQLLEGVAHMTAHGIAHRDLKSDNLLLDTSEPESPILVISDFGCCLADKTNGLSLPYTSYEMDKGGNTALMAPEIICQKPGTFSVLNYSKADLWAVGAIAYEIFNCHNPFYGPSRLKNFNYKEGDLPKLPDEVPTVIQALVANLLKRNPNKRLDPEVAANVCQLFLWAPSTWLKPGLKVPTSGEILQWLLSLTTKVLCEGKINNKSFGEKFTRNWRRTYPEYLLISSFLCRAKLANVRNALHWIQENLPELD
- EXPERIMENT DESCRIPTION: Peptide substrate kinase assay: phosphorylation of PINKtide and variants, [γ-32P] ATP, P81 paper
- Assay type: biochemical
- CONDITION DESCRIPTION: phosphorylation of the peptide substrate by full-length TcPINK1 (1–570); kinase 1 µM, 0.1 mM [γ-32P] ATP, 30 min, 30°C; 1 U = incorporation of 1 nmol of ATP into substrate; nonlinear regression; n.d. = peptide phosphorylated poorly, kinetic values not determinable
ENDPOINT NAME: Vmax

Completed entries (count: 3):
So for KKWIpTRRSPRRR [PINKtide variant at the −3 position] , the logged Vmax turned out to be 8 U mg^−1

Record KKAIpYRRSPRRR [PINKtide variant at the −5 position] . Reported Vmax: 8 U mg^−1

// KKKIpYRRSPRRR [PINKtide variant at the −5 position] : Vmax value = 2 U mg^−1

In the following, a different substance is considered.
Item: KKWIKRRSPRRR [PINKtide variant at the −3 position] | Vmax: 1 U mg^−1

Data provenance is paper PMC3352081.
